# Target: TrCel7A (Trichoderma reesei, UniProt P62694)
# Construct: TrCel7A was purified from the culture filtrate of Tr QM 9414 as described previously; made in house; host or cells: Trichoderma reesei QM 9414 culture filtrate (native producer)
# Sequence (P62694 18-513): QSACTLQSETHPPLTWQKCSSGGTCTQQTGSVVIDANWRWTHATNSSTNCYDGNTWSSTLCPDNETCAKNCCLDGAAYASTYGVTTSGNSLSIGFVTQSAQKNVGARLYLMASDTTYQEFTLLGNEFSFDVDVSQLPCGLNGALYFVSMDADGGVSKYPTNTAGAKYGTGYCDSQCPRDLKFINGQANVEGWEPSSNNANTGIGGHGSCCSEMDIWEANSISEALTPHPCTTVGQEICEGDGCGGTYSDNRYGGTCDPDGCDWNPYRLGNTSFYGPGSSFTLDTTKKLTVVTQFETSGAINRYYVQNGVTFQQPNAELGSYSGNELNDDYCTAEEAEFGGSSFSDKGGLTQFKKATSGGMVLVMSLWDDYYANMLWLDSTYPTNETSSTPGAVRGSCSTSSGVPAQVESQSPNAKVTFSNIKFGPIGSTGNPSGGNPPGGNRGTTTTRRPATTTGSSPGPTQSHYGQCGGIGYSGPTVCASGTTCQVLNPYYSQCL
# Assay Explanation: Cellobiose inhibition of MUL hydrolysis by TrCel7A
# Assay type: biochemical
# Cond: Ki for cellobiose, MUL substrate (5 μM), 35°C
Experimental Readout: Ki (µM)

[[record]]
compound = "O=C[C@H](O)[C@@H](O)[C@H](O[C@@H]1O[C@H](CO)[C@@H](O)[C@H](O)[C@H]1O)[C@H](O)CO [cellobiose, Cellobiose]"
uom = "µM"
test_value = 40


====

# Target: TaCel7A (Thermoascus aurantiacus, UniProt A7WNU2)
# Sequence (A7WNU2 entry or part of it): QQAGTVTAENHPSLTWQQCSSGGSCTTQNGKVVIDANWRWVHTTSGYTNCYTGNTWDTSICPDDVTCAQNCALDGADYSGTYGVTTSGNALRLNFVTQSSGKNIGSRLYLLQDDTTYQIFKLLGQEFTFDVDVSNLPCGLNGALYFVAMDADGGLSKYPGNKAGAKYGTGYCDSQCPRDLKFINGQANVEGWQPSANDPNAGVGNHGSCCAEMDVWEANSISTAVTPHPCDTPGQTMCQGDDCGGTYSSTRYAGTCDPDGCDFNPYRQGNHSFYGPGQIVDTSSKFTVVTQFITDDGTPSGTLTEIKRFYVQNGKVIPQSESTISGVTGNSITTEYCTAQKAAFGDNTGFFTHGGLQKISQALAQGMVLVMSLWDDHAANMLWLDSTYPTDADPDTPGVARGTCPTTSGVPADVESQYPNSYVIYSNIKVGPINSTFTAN
# Assay Explanation: Cellobiose inhibition of MUL hydrolysis by TaCel7A
# Type: biochemical
# Cond: MUL substrate (5 μM), 50°C
Experimental Readout: Ki (µM)

[[record]]
molecule = "O=C[C@H](O)[C@@H](O)[C@H](O[C@@H]1O[C@H](CO)[C@@H](O)[C@H](O)[C@H]1O)[C@H](O)CO [cellobiose, Cellobiose]"
test_value = 355


====

# Target: TrCel7A (Trichoderma reesei, UniProt P62694)
# Construct: TrCel7A was purified from the culture filtrate of Tr QM 9414 as described previously; made in house; host or cells: Trichoderma reesei QM 9414 culture filtrate (native producer)
# Assay Explanation: Inhibition of synergistic hydrolysis of 14C-BC by TrCel7A (supplemented with EG TrCel5A)
# Format: biochemical
# Cond: IC50 for cellobiose, 14C-BC substrate, 50°C, average over time points
pIC50: −log10 of the molar value.
Experimental Readout: pIC50

[[record]]
molecule = "O=C[C@H](O)[C@@H](O)[C@H](O[C@@H]1O[C@H](CO)[C@@H](O)[C@H](O)[C@H]1O)[C@H](O)CO [cellobiose, Cellobiose]"
experimental_readout = "pIC50"
test_value = 2.58


====

# Target: AtCel7A (Acremonium thermophilum)
# Assay Explanation: Inhibition of synergistic hydrolysis of 14C-BC by AtCel7A (supplemented with EG TrCel5A)
# Assay type: biochemical
# Cond: 14C-BC substrate, 25°C, IC50 decreased with hydrolysis time, read-out: IC50 for cellobiose
pIC50: −log10 of the molar value.
Experimental Readout: pIC50

[[record]]
compound = "O=C[C@H](O)[C@@H](O)[C@H](O[C@@H]1O[C@H](CO)[C@@H](O)[C@H](O)[C@H]1O)[C@H](O)CO [cellobiose, Cellobiose]"
target = "AtCel7A (Acremonium thermophilum)"
test_value = 3.72


====

# Target: CtCel7A (Chaetomium thermophilum)
# Assay Explanation: Inhibition of synergistic hydrolysis of 14C-BC by CtCel7A (supplemented with EG TrCel5A)
# Assay type: biochemical
# Cond: 14C-BC substrate, 35°C, read-out: IC50 for cellobiose
pIC50: −log10 of the molar value.
Experimental Readout: pIC50

[[record]]
compound = "O=C[C@H](O)[C@@H](O)[C@H](O[C@@H]1O[C@H](CO)[C@@H](O)[C@H](O)[C@H]1O)[C@H](O)CO [cellobiose, Cellobiose]"
experimental_readout = "pIC50"
test_value = 2.97


====

# Target: CtCel7A (Chaetomium thermophilum)
# Assay Explanation: Inhibition of synergistic hydrolysis of 14C-BC by CtCel7A (supplemented with EG TrCel5A)
# Format: biochemical
# Cond: 14C-BC substrate, 50°C, IC50 increased with hydrolysis time, read-out: IC50 for cellobiose
pIC50: −log10 of the molar value.
Experimental Readout: pIC50

[[record]]
structure_string = "O=C[C@H](O)[C@@H](O)[C@H](O[C@@H]1O[C@H](CO)[C@@H](O)[C@H](O)[C@H]1O)[C@H](O)CO"
test_value = 2.61


====

# Target: TaCel7A (Thermoascus aurantiacus)
# Assay Explanation: Inhibition of synergistic hydrolysis of 14C-BC by TaCel7A (supplemented with EG TrCel5A)
# Format: biochemical
# Cond: 14C-BC substrate, 35°C, read-out: IC50 for cellobiose
Experimental Readout: IC50 (µM)

[[record]]
structure_string = "O=C[C@H](O)[C@@H](O)[C@H](O[C@@H]1O[C@H](CO)[C@@H](O)[C@H](O)[C@H]1O)[C@H](O)CO"
uom = "µM"
test_value = 580


====

# Target: CtCel6A (Chaetomium thermophilum, UniProt G0SD43)
# Sequence (G0SD43 entry or part of it): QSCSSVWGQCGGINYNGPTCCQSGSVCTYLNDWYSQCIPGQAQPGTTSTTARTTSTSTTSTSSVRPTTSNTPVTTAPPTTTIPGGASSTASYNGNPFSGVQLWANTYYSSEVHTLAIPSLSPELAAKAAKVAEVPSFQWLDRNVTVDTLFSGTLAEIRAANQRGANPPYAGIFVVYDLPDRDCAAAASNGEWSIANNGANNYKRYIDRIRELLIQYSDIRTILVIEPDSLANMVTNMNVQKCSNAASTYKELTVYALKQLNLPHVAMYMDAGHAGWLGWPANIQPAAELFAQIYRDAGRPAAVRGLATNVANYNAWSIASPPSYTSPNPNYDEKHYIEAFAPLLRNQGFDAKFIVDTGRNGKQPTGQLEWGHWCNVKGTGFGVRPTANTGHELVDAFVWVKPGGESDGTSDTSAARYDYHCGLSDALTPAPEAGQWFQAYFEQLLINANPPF
pIC50: −log10 of the molar value.
Experimental Readout: pIC50

[[record]]
structure_string = "O=C[C@H](O)[C@@H](O)[C@H](O[C@@H]1O[C@H](CO)[C@@H](O)[C@H](O)[C@H]1O)[C@H](O)CO"
experimental_readout = "pIC50"
test_value = 1.55


====

# Target: AtCel7A (Acremonium thermophilum, UniProt A7WNT9)
# Sequence (A7WNT9 entry or part of it): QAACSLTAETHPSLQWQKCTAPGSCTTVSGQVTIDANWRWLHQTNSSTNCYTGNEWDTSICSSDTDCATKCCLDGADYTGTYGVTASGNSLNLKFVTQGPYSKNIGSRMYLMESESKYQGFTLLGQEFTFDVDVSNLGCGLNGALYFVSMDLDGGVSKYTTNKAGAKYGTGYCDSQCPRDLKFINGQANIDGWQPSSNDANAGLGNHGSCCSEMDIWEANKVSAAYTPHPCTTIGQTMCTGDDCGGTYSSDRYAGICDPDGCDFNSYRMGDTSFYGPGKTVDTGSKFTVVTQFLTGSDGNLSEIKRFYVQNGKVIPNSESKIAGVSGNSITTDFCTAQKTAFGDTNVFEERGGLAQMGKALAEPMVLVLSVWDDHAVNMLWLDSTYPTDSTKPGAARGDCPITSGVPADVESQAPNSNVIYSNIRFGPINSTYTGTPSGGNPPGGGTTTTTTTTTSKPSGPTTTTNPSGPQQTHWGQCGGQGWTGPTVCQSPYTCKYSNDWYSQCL
# Assay Explanation: Inhibition of synergistic hydrolysis of 14C-BC by AtCel7A (supplemented with EG TrCel5A)
# Format: biochemical
# Cond: 14C-BC substrate, 35°C, read-out: IC50 for cellobiose
# Description: To study the cellobiose inhibition of GH7 CBHs, the synergistic hydrolysis of ^14C-BC in the presence of added cellobiose was followed (Figure 3, Additional file 1: Figures S1 and S2). […] The strength of cellobiose inhibition was analyzed using plots of (DCB/DCB=0) versus [cellobiose], where DCB and DCB=0 represent the degree of conversion of ^14C-BC in the presence and absence of cellobiose, respectively (Figure 4, Additional file 1: Figure S3). […]
Experimental Readout: IC50 (µM)

[[record]]
structure_string = "O=C[C@H](O)[C@@H](O)[C@H](O[C@@H]1O[C@H](CO)[C@@H](O)[C@H](O)[C@H]1O)[C@H](O)CO"
target = "AtCel7A (Acremonium thermophilum, UniProt A7WNT9)"
experimental_readout = "IC50"
uom = "µM"
test_value = 440


====

# Target: TrCel7A (Trichoderma reesei, UniProt P62694)
# Construct: TrCel7A was purified from the culture filtrate of Tr QM 9414 as described previously; made in house; host or cells: Trichoderma reesei QM 9414 culture filtrate (native producer)
# Assay Explanation: Inhibition of synergistic hydrolysis of 14C-BC by TrCel7A (supplemented with EG TrCel5A)
# Assay type: biochemical
# Cond: IC50 for cellobiose, 14C-BC substrate, 35°C, average over time points, IC50 increased with hydrolysis time
Experimental Readout: IC50 (µM)

[[record]]
compound = "O=C[C@H](O)[C@@H](O)[C@H](O[C@@H]1O[C@H](CO)[C@@H](O)[C@H](O)[C@H]1O)[C@H](O)CO [cellobiose, Cellobiose]"
target = "TrCel7A (Trichoderma reesei, UniProt P62694)"
uom = "µM"
test_value = 680


====

# Target: CtCel7A (Chaetomium thermophilum)
# Assay Explanation: Cellobiose inhibition of MUL hydrolysis by CtCel7A
# Assay type: biochemical
# Cond: MUL substrate (5 μM), 35°C
Experimental Readout: Ki (µM)

[[record]]
compound = "O=C[C@H](O)[C@@H](O)[C@H](O[C@@H]1O[C@H](CO)[C@@H](O)[C@H](O)[C@H]1O)[C@H](O)CO [cellobiose, Cellobiose]"
experimental_readout = "Ki"
test_value = 110


====

# Target: TrCel6A (Trichoderma reesei, UniProt P07987)
# Construct: TrCel6A was purified from the culture filtrate of Tr QM 9414 as described previously; made in house; host or cells: Trichoderma reesei QM 9414 culture filtrate (native producer)
# Sequence (P07987 25-471): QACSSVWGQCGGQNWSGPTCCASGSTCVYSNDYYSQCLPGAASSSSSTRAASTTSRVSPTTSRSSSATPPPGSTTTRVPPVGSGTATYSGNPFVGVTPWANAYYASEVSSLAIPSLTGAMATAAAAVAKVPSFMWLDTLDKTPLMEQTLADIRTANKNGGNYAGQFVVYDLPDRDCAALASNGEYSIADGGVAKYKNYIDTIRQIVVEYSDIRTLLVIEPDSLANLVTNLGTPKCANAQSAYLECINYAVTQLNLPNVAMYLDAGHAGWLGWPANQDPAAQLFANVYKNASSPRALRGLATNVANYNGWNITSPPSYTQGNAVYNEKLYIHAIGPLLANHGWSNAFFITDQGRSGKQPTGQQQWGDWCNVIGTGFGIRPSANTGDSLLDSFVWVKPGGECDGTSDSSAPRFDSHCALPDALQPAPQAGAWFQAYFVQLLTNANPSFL
# Assay Explanation: Cellobiose inhibition of synergistic hydrolysis of 14C-BC by TrCel6A and EG TrCel5A
# Assay type: biochemical
pIC50: −log10 of the molar value.
Experimental Readout: pIC50

[[record]]
compound = "O=C[C@H](O)[C@@H](O)[C@H](O[C@@H]1O[C@H](CO)[C@@H](O)[C@H](O)[C@H]1O)[C@H](O)CO [cellobiose, Cellobiose]"
test_value = 1.80


====

# Target: TrCel6A (Trichoderma reesei)
# Construct: TrCel6A was purified from the culture filtrate of Tr QM 9414 as described previously; made in house; host or cells: Trichoderma reesei QM 9414 culture filtrate (native producer)
# Assay Explanation: Inhibition of hydrolysis of 14C-BMCC by TrCel6A
# Format: biochemical
Experimental Readout: IC50 (mM)

[[record]]
molecule = "O=C[C@H](O)[C@@H](O)[C@H](O[C@@H]1O[C@H](CO)[C@@H](O)[C@H](O)[C@H]1O)[C@H](O)CO [cellobiose, Cellobiose]"
uom = "mM"
test_value = 20


====

# Target: CtCel7A (Chaetomium thermophilum, UniProt A7WNU1)
# Sequence (A7WNU1 entry or part of it): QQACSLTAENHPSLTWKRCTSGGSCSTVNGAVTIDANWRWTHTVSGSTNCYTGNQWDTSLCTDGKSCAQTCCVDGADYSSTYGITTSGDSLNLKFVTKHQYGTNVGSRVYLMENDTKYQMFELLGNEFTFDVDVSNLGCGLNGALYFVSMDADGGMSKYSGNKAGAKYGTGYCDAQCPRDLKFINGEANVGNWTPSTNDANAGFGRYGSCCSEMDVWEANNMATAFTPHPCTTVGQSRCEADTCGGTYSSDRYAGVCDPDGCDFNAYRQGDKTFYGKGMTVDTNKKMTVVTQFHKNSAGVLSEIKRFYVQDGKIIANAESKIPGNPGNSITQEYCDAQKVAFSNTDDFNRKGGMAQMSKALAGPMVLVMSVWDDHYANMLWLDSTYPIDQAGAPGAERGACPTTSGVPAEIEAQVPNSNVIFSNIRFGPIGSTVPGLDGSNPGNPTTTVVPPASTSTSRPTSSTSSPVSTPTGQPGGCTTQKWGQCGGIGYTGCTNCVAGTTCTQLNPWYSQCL
# Assay Explanation: Inhibition of synergistic hydrolysis of 14C-BC by CtCel7A (supplemented with EG TrCel5A)
# Format: biochemical
# Cond: 14C-BC substrate, 25°C, read-out: IC50 for cellobiose
Experimental Readout: IC50 (µM)

[[record]]
structure_string = "O=C[C@H](O)[C@@H](O)[C@H](O[C@@H]1O[C@H](CO)[C@@H](O)[C@H](O)[C@H]1O)[C@H](O)CO"
test_value = 410

